- Tested on: Hepatitis C virus
- assay comment: Antiviral activity against Hepatitis C virus
- Assay type: functional, organism-based, Hepacivirus hominis
- assay setup: Hepatitis C virus
Starred links: 1 amine or outer side, 2 acyl side, 3 side chain; linkers in the order of their positions; H or OH if unused. Non-standard residues stand in square brackets, D forms with d. Residues, ends and D or L forms follow the SMILES beside them. *: point of attachment. Hyp(2-Ph-quinolin-4-yl) = O=C(O)[C@@H]1C[C@@H](Oc2cc(-c3ccccc3)nc3ccccc23)CN1; Acca(2-Et,1R,2R) = CC[C@@H]1C[C@]1(N)C(=O)O; Dip = N[C@H](C(=O)O)C(c1ccccc1)c1ccccc1; Hyp = O=C(O)[C@@H]1C[C@@H](O)CN1; azaNva = CCCN(N[*:1])C(=O)[*:2]; Cha = N[C@@H](CC1CCCCC1)C(=O)O; Chg = N[C@H](C(=O)O)C1CCCCC1; NH(CH2)3Ph = c1ccc(CCCN*)cc1; X5 = c1ccc2c(c1)CC[C@@H]2N*; X6 = c1ccc2c(c1)CC(N*)C2; Bn = c1ccc(C*)cc1
Kindly apply the following: 1 if IC50 is less than 3000 nM, -1 in every other case.

Please review the entries below; each comes with its answer.
>>> answer_label("CC(=O)N[C@@H](CC(=O)O)C(=O)N[C@@H](CCC(=O)O)C(=O)N[C@H](C(=O)N[C@@H](CCC(=O)O)C(=O)N[C@@H](CC1CCCCC1)C(=O)N[C@@H](CS)C(=O)NCCCc1ccccc1)C(c1ccccc1)c1ccccc1 (Ac-DE[Dip]E[Cha]C-{NH(CH2)3Ph})")
1
>>> answer_label("CC[C@@H]1C[C@]1(NC(=O)[C@@H]1C[C@@H](Oc2cc(-c3ccccc3)nc3ccccc23)CN1C(=O)[C@@H](NC(=O)[C@@H](NC(C)=O)C1CCCCC1)C(C)C)C(=O)O (Ac-[Chg]V[Hyp(2-Ph-quinolin-4-yl)][Acca(2-Et,1R,2R)]-OH)")
1
>>> answer_label("O=C(O)[C@H](Cc1ccccc1)N(Cc1cccnc1)C(=O)c1ccc(Cl)cc1Cl")
-1
>>> answer_label("COc1ccc2c(O[C@@H]3C[C@H]4C(=O)N[C@]5(C(=O)O)C[C@H]5/C=C\\CCCCC[C@H](NC(=O)OC5CCCC5)C(=O)N4C3)cc(-n3cccn3)nc2c1")
1
>>> answer_label("CC(=O)N[C@H](C(=O)N[C@H](C(=O)N1C[C@H](Oc2cccc(Br)c2)C[C@H]1C(=O)NC1(C(=O)O)CC1)C(C)C)C1CCCCC1")
-1

Does the reported IC50 of CCCC1(CC(=O)OCC)OCCc2c1[nH]c1c(C)ccc(C#N)c21 (stereo unspecified) stay below 3000 nM?
-1

Does the reported IC50 of CCc1ccc(C(=O)CC(=O)C(=O)O)cc1 stay below 3000 nM?
-1

Does the reported IC50 of CCCC1(CC(=O)O)OCCc2c1[nH]c1c(C)ccc(C#N)c21 (stereo unspecified) stay below 3000 nM?
1

Does the reported IC50 of CCC[C@@]1(CC(=O)O)OCCc2c1[nH]c1c(Cl)ccc(CC)c21 stay below 3000 nM?
-1

Does the reported IC50 of N#Cc1ccccc1CN(C(=O)c1ccc(Cl)cc1Cl)[C@@H](Cc1ccccc1)C(=O)O stay below 3000 nM?
-1

Does the reported IC50 of CCCN(NC(=O)[C@@H]1C[C@@H](OCc2ccccc2)CN1C(=O)[C@@H](NC(=O)[C@@H](NC(=O)[C@@H](CCC(=O)O)NC(=O)[C@H](CC(=O)O)NC(C)=O)[C@@H](C)CC)C(C)C)C(=O)N[C@H]1CCc2ccccc21 (Ac-D[dE]IV[Hyp](Bn)[azaNva]-X5) stay below 3000 nM?
1

Does the reported IC50 of O=C(O)[C@H](Cc1ccccc1)N(Cc1cccc(Cl)c1)C(=O)c1ccc(Cl)cc1Cl stay below 3000 nM?
1

Does the reported IC50 of N#Cc1c(Cl)cccc1COc1cccc(C(=O)/C=C(\O)C(=O)O)c1 stay below 3000 nM?
1

Does the reported IC50 of CC(=O)N[C@@H](CC(=O)O)C(=O)N[C@@H](CCC(=O)O)C(=O)N[C@H](C(=O)N[C@@H](CCC(=O)O)C(=O)N[C@@H](CC1CCCCC1)C(=O)N[C@@H](CS)C(=O)NC1Cc2ccccc2C1)C(c1ccccc1)c1ccccc1 (Ac-DE[Dip]E[Cha]C-X6) stay below 3000 nM?
1

Does the reported IC50 of O=C(CC(=O)C(=O)O)Cc1ccncc1 stay below 3000 nM?
-1

Does the reported IC50 of O=C(O)[C@H](Cc1ccccc1)N(Cc1cccc([N+](=O)[O-])c1)C(=O)c1ccc(Cl)cc1Cl stay below 3000 nM?
1

Does the reported IC50 of CC(C)(C)C(=O)CC(=O)C(=O)O stay below 3000 nM?
-1
